- studyTarget: T1, human GIP receptor (human, UniProt P48546 22-466)
- T1 sequence (looked up): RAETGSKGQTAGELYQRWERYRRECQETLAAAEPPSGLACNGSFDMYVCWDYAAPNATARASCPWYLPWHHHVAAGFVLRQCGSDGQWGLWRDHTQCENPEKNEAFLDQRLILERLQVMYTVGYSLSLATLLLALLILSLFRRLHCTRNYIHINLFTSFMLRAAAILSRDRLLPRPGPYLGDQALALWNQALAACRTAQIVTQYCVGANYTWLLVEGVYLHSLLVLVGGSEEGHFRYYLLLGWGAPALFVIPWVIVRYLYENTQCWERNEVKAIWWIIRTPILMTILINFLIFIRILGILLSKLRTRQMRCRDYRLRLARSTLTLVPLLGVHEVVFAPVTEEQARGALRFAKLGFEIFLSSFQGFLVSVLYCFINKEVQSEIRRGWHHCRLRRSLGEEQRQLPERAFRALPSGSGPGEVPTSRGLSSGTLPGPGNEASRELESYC
- measurementDescription: cell-based or functional assay
Where no end group is shown, it is not given here. [ ]: non-standard residue; d: D form. The star is where a group is joined. Acetyl(2-(4-imidazolyl)) = O=C(Cc1c[nH]cn1)*; Aib = CC(C)(N)C(=O)O
Please respond with reported In vitro activity compared with native peptide (%) vs. GIP for every item in the list.

What In vitro activity compared with native peptide (%) vs. GIP value was documented for this binder, HGQGTFTSDCSKQLDGQAAQEFVAWLLAGGPSSGAPPPS [Triple agonist of SEQ ID NO: 44] ?
< 0.1%

Try the binder HGQGTFTSDCSKYLDGQRAQDFVNWLLAGGPSSGAPPPS [Triple agonist of SEQ ID NO: 48]
< 0.1%

Try the binder {Acetyl(2-(4-imidazolyl))}-[Aib]QGTFTSDKSKYLDERAAQDFVQWLLDGGPSSGAPPPS [Triple agonist of SEQ ID NO: 62]
< 0.1%
